- Procedure summary: chemical genetic growth profiling, strain panel (AID 1159580);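 note: tested at 20 µM; growth read once vehicle control cultures reached saturation at 30 °C; 1 = growth at the plate median or of vehicle wells; lower values mean less growth of the strain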
- Condition notes: S. cerevisiae deletion strains, growth OD, locus YGL167C, strain pmr1, hits give low values
Out of some 5,500 compounds screened, about 2,000 (36%) were called active. Not shown: some 18% with an inconclusive outcome. This is one part of the list.
Known normalized growth of a selection of molecules
Answer with a number only.

Molecule	normalized growth
C/C=C/c1ccc2c(c1)OCO2	1.02
CO[C@H]1/C=C/O[C@@]2(C)Oc3c(C)c(O)c4c(O)c(c5c(nc6cc(C)ccn65)c4c3C2=O)NC(=O)/C(C)=C\C=C\[C@H](C)[C@H](O)[C@@H](C)C(O)[C@@H](C)[C@H](OC(C)=O)[C@@H]1C (stereo not given in full)	1.04
CC(C)(C)NCC(O)c1ccccc1Cl (stereo not given)	0.989
CN1C(CC(=O)c2ccccc2)CCCC1CC(O)c1ccccc1 (stereo not given)	0.963
O=C1C=CC2=C3c4cc(O)c(O)cc4CC3(O)COC2=C1O (stereo not given)	1.03

So what's the measured normalized growth for this one? CC(C)NCC(O)c1ccc2ccccc2c1 (stereo not given)
1

So what's the measured normalized growth for this one? CCOC(=O)c1oc2c(OC)c(O)cc(O)c2c(=O)c1-c1cc(OC)c(OC)c(OC)c1
0.957

So what's the measured normalized growth for this one? OC[C@@H](O)[C@@H](O[C@@H]1O[C@H](CO)[C@@H](O)[C@H](O)[C@H]1O)[C@H](O)[C@@H](O)CO
1.01

So what's the measured normalized growth for this one? CC(=O)NCCCCCC(=O)O
0.969

So what's the measured normalized growth for this one? CS(=O)(=O)CCCCN=C=S
0.964

So what's the measured normalized growth for this one? O=C1CCCC2C3CC(CN12)[C@@H]1CCCCN1C3 (stereo not given in full)
0.991

So what's the measured normalized growth for this one? Cc1c(O)c(O)cc2c1CC=C1[C@@]2(C)CC[C@@]2(C)C3C[C@](C)(C(=O)O)CC[C@]3(C)CC[C@]12C (stereo not given in full)
0.738

So what's the measured normalized growth for this one? CC(C)(C)NC[C@@H](O)COc1nsnc1N1CCOCC1
1.02

So what's the measured normalized growth for this one? CO[C@H]1/C=C/O[C@@]2(C)Oc3c(C)c(O)c4c(O)c(c(/C=N/N5CCN(C)CC5)c(O)c4c3C2=O)NC(=O)/C(C)=C\C=C\C(C)[C@H](O)[C@@H](C)[C@@H](O)[C@@H](C)[C@@H](OC(C)=O)[C@@H]1C (stereo not given in full)
1.02

So what's the measured normalized growth for this one? COc1cc(OC)c2c(=O)c(-c3ccccc3)c(C)oc2c1OC
0.97

* * *

- Procedure summary: chemical genetic growth profiling, strain panel (AID 1159580)
- Condition notes: S. cerevisiae deletion strains, growth OD, locus YDL040C, strain nat1, hits give low values
Hit rate of the full screen: of about 5,500 compounds, about 2,000 (36%) were called active. Not shown: some 18% with an inconclusive outcome. Some of the results follow.
Known normalized growth of a selection of compounds
Answer with a number only.

Some compounds with recorded normalized growth:
Compound	Result
C/C=C/c1ccc2c(c1)OCO2	1.02
Cc1ccc2c(Cl)cc(Cl)c(O)c2n1	1.02
Oc1c(Br)cc(Br)c2cccnc12	0.0563
O=C1O[C@H](C(O)CO)C(O)=C1O (some centres not stated)	0.987
CC(=O)/C(=C\c1ccccc1)CC(=O)O	0.985

So what's the measured normalized growth for this one? CCCCC(CC)CN1CN(CC(CC)CCCC)CC(C)(N)C1 (configuration not stated)
0.055

So what's the measured normalized growth for this one? Oc1ccc(Cl)c2cccnc12
0.169

* * *

- Procedure summary: chemical genetic growth profiling, strain panel (AID 1159580)
- Condition notes: S. cerevisiae deletion strains, growth OD, locus YJL115W, strain asf1, hits give low values
The whole screen tested about 5,500 compounds, of which about 2,000 (36%) were called active. Roughly 18% stayed inconclusive and do not appear here. The list shows a part of the results.
Could you mark each record Y if its normalized growth falls strictly under 1, and N if it equals or exceeds it?

See these solved cases before continuing.
Compound	Qualitative label
CCC(Cc1c(I)cc(I)c(N)c1I)C(=O)O (centres undefined)	Y
CC/C(=C(\c1ccccc1)c1ccc(OCCN(C)C)cc1)c1ccccc1	Y
CCCCC(CC)CN1CN(CC(CC)CCCC)CC(C)(N)C1 (centres undefined)	Y
C=C(C)C1CC=C(CO)CC1 (centres undefined)	Y
C1CCN2CC3CC(CN4CCCCC34)C2C1 (centres undefined)	N

Consider the compound CS(=O)(=O)CCCCN=C=S . Is its normalized growth strictly less than 1?
Y

* * *

- Procedure summary: chemical genetic growth profiling, strain panel (AID 1159580)
- Condition notes: S. cerevisiae deletion strains, growth OD, locus YJR066W, strain TOR1, hits give low values
About 2,000 (36%) of roughly 5,500 compounds were called active. Not shown: some 18% with an inconclusive outcome. The list shows a part of the results.
Outcome measure: normalized growth
Answer with a number only.

Some molecules with recorded normalized growth:
Molecule	normalized growth
CSc1ccc(/C=C/[N+](=O)[O-])cc1	0.114
CNC[C@@H](O)c1ccc(O)c(O)c1	0.985
CS(=O)(=O)CCCCN=C=S	0.716
CC(=O)Nc1ccc(S(=O)(=O)Nc2ccc([N+](=O)[O-])cc2)cc1	0.93
NCC(O)c1ccc(O)cc1 (stereo not drawn)	0.919

So what's the measured normalized growth for this one? CC(=O)Nc1ccc(S(=O)(=O)c2ccc(NC(C)=O)cc2)cc1
0.988

So what's the measured normalized growth for this one? Cc1occc(=O)c1O
0.991

So what's the measured normalized growth for this one? Cc1nn(Cc2ccc(C(=O)Sc3ccc(C(F)(F)F)cn3)o2)c(C)c1Br
0.76

So what's the measured normalized growth for this one? CC(=O)Nc1ccc(/C=C/[N+](=O)[O-])cc1
0.684

So what's the measured normalized growth for this one? CC1(C)CCCC2(C)C3C1[C@@H](O)C2(C)C[C@H]3O (stereo partly drawn)
0.923

So what's the measured normalized growth for this one? C=C[C@@H](C1=CC(=O)C(OC)=C(OC)C1=O)c1ccccc1
0.716

So what's the measured normalized growth for this one? Oc1c(I)cc(I)c2cccnc12
0.106

So what's the measured normalized growth for this one? O=C1CCCC2C3CC(CN12)[C@@H]1CCCCN1C3 (stereo partly drawn)
0.992

* * *

- Procedure summary: chemical genetic growth profiling, strain panel (AID 1159580);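 note: tested at 20 µM; growth read once vehicle control cultures reached saturation at 30 °C; 1 = growth at the plate median or of vehicle wells; lower values mean less growth of the strain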
- Condition notes: S. cerevisiae deletion strains, growth OD, locus YDR334W, strain swr1, hits give low values
Among all 5,500 compounds or so, about 2,000 (36%) were called active. Inconclusive results (about 18%) are left out. The list shows a part of the results.
Known normalized growth of a selection of compounds
Answer with a number only.

Compound	normalized growth
O=C(NC(=O)c1c(F)cccc1F)Nc1ccc(Cl)cc1	1.01

So what's the measured normalized growth for this one? CC(=O)O[C@@H]1C[C@@]2(C)[C@H](c3ccoc3)C[C@H]3O[C@]32[C@]2(C)C(=O)C(O)=C3C(C)(C)C(=O)C=C[C@]3(C)C12 (some centres undefined)
0.963

So what's the measured normalized growth for this one? CC(=O)O[C@@H]1CC2C(C)(C)C=CC(=O)[C@]2(C)C2CC[C@@]3(C)[C@H](c4ccoc4)OC(=O)C4OC43[C@@]21C (some centres undefined)
1.01

So what's the measured normalized growth for this one? CC1(C)C(=O)C=C[C@@]2(C)C1=C(O)C(=O)[C@]1(C)C2CC[C@@]2(C)[C@H](c3ccoc3)C[C@H]3O[C@]321 (some centres undefined)
0.965

* * *

Known normalized growth of a selection of molecules
- Procedure summary: chemical genetic growth profiling, strain panel (AID 1159580);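 note: tested at 20 µM; growth read once vehicle control cultures reached saturation at 30 °C; 1 = growth at the plate median or of vehicle wells; lower values mean less growth of the strain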
- Condition notes: S. cerevisiae deletion strains, growth OD, locus YNL322C, strain KRE1, hits give low values
About 2,000 (36%) of roughly 5,500 compounds were called active. About 18% were inconclusive and are not listed. Some of the results follow.
Answer with a number only.

Some molecules with recorded normalized growth:
Molecule	normalized growth
NC(=NCCC[C@H](N)C(=O)O)NC(CCC(=O)O)C(=O)O (some centres not stated)	1.01
COC(=O)c1cc(OC)c(OC)cc1-n1c(C)ccc1C	0.99
NC(N)=NC(N)=Nc1cc(C(F)(F)F)cc(C(F)(F)F)c1	0.987

Here is the next item to consider.
So what's the measured normalized growth for this one? CC(=O)c1sc(SCc2ccc(Cl)cc2)c2c1CC(C)(C)CC2=O
0.993

* * *

- Procedure summary: chemical genetic growth profiling, strain panel (AID 1159580);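 note: tested at 20 µM; growth read once vehicle control cultures reached saturation at 30 °C; 1 = growth at the plate median or of vehicle wells; lower values mean less growth of the strain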
- Condition notes: S. cerevisiae deletion strains, growth OD, locus YOR136W, strain idh2, hits give low values
Out of some 5,500 compounds screened, about 2,000 (36%) were called active. Inconclusive results (about 18%) are left out. This is one part of the list.
Outcome measure: normalized growth
Answer with a number only.

So what's the measured normalized growth for this one? Nc1ncnc2c1ncn2C1C[C@H](O)[C@@H](CO)O1 (some centres not stated)
1

So what's the measured normalized growth for this one? CCN(CC)CCNC(=O)c1cc(S(C)(=O)=O)ccc1OC
1.01

So what's the measured normalized growth for this one? CC(=O)c1c(O)c(C)c(O)c2c1OC1=CC(=O)C(C(C)=O)C(=O)C12C (configuration not stated)
0.976

So what's the measured normalized growth for this one? O[N+]1=CC=CCC1=S.On1ccccc1=S.[Zn]
0.0716

So what's the measured normalized growth for this one? CCC(Cc1c(I)cc(I)c(N)c1I)C(=O)O (configuration not stated)
1.02

So what's the measured normalized growth for this one? COc1cc2c(c(OC)c1OC)-c1ccc(OC)c(=O)cc1[C@@H](NC(C)=O)CC2
1.02

So what's the measured normalized growth for this one? O=c1[nH]c(=O)n(C2C[C@@H](O)[C@@H](CO)O2)cc1F (some centres not stated)
1.02
